testDescription: Kit225 T Cell Assay, IL-23-stimulated STAT-dependent luciferase reporter
Type: cell-based
conditionNotes: Kit225 T cells, 20 ng/mL human recombinant IL-23, 5-6 hours, luciferase expression
# key: entry, value: pIC50
In simple prose, pIC50 is minus the logarithm base ten of a concentration in moles per litre.

{"columns": ["molecule", "observedValue"],
 "data": [
  ["C[C@@H]1COC[C@H](C)N1C(=O)c1ccc(Nc2cc(N[C@H]3CCCC[C@@H]3O)nn3c(C#N)cnc23)nc1OCC(F)F", 6.30],
  ["N#Cc1cnc2c(Nc3ccc(C(=O)N4CCCC4C(F)(F)F)c(OCC(F)F)n3)cc(N[C@@H]3CCCC[C@H]3O)nn12 (stereo partly shown)", 6.17],
  ["N#Cc1cnc2c(Nc3cccc(N4CCN(S(=O)(=O)N5CCOCC5)CC4)n3)cc(N[C@@H]3CCCC[C@H]3O)nn12", 6.25]
]}

Read the next record carefully.
Fill in the blank: the reported pIC50 of N#Cc1cnc2c(Nc3cccc(N)n3)cc(N[C@@H]3CCCC[C@H]3O)nn12 is ____.
6.15
